Source listed as patent US20130288983A1.

// reported normalized SPR signal for each item listed
- target.of.assay: T1, Activin A (Homo sapiens (Human), UniProt P08476 311-426)
- T1 sequence: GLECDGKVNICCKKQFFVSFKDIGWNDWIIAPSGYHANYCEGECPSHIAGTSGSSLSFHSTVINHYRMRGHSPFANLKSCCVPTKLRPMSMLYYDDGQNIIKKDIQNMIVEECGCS
- assay.details: Biacore SPR grade, COS transient conditioned media, 20 nM activin A

binder: ActRIIB-IgG1 Fc E28V, linker GGGGS (Fc fusion, Tested from conditioned media) SGRGEAETRVCIYYNANWELERTNQSGLERCEGEQDKRLHCYASWRNSSGTIELVKKGCWLDDFNCYDRQECVATEENPQVYFCCCEGNFCNERFTHLPEAGGPEVTYEPPPTAPTGGGGSAPELLGGPSVFLFPPKPKDILMISRTPEVTCVVVDVSHEDPEVKFNWYVGGVEVHNAKTKPREEQYNSTYRVVSVLTVLHQDWLNGKEYKCKVSNKALPAPIEKTISKAKGQPREPQVYTLPPSRDELTKNQVSLTCLVKGFYPSDIAVEWESNGQPENNYKTTPPVLDSDGSFFLYSKLTVDKSRWQQGNVFSCSVMHEALHNHYTQKSLSLSPGK
normalized SPR signal: 5 to 10 ru

# input for lookup
Exercise: Reported normalized SPR signal for ActRIIB-IgG1 Fc wild type, linker GGGGS (Fc fusion, Tested from conditioned media) SGRGEAETRECIYYNANWELERTNQSGLERCEGEQDKRLHCYASWRNSSGTIELVKKGCWLDDFNCYDRQECVATEENPQVYFCCCEGNFCNERFTHLPEAGGPEVTYEPPPTAPTGGGGSAPELLGGPSVFLFPPKPKDILMISRTPEVTCVVVDVSHEDPEVKFNWYVGGVEVHNAKTKPREEQYNSTYRVVSVLTVLHQDWLNGKEYKCKVSNKALPAPIEKTISKAKGQPREPQVYTLPPSRDELTKNQVSLTCLVKGFYPSDIAVEWESNGQPENNYKTTPPVLDSDGSFFLYSKLTVDKSRWQQGNVFSCSVMHEALHNHYTQKSLSLSPGK : what is it?
Solution: 5 to 10 ru
